Target: COX-1 (Homo sapiens, UniProt P23219)
Construct: A 2.0 kb fragment containing the coding region
Sequence (P23219 24-599): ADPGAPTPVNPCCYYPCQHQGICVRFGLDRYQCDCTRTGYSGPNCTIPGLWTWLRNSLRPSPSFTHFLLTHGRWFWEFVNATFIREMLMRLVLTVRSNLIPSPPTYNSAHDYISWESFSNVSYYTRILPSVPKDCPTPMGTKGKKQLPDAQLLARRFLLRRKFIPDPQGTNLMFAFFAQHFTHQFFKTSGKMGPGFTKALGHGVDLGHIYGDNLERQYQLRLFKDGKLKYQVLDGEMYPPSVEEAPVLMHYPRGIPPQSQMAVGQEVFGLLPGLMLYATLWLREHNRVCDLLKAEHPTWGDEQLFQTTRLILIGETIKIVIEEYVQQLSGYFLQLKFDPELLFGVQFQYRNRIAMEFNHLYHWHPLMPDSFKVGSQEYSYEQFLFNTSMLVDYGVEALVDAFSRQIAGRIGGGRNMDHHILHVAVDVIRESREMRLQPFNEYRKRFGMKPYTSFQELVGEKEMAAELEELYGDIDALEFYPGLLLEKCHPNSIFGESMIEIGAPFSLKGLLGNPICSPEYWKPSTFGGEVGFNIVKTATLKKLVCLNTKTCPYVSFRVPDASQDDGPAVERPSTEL
Assay: COX-1 activity in vitro, recombinant human enzyme (PGE2 ELISA)
Conditions: human (h); 10 μM arachidonic acid, 10-20 min pre-incubation; read-out: COX-1 ID50
Method: The COX-2 inhibition activity of the compounds of this invention illustrated in the Examples was determined by the following methods. Recombinant COX-1 and COX-2 were prepared as described by Gierse et al, [J. Biochem., 305, 479-84 (1995)]. […] b. […] The PGE2 formed was measured by standard ELISA technology (Cayman Chemical).
value-kind: IC50

Some compounds with known IC50 results, for comparison:
CS(=O)(=O)c1ccc(-c2cc(C#N)c(OCCCC(F)(F)F)nc2-c2ccc(F)cc2)cc1: > 100 µM
CCCCOc1nc(-c2ccc(F)cc2)c(-c2ccc(S(C)(=O)=O)cc2)cc1CO: > 100 µM
CS(=O)(=O)c1ccc(-c2ccc(Cl)nc2-c2ccc(F)cc2)cc1: > 100 µM
CCCCOc1nc(-c2ccc(F)cc2)c(-c2ccc(S(C)(=O)=O)cc2)cc1CN: > 100 µM
CNc1nc(-c2ccc(F)cc2)c(-c2ccc(S(C)(=O)=O)cc2)cc1C#N: > 100 µM
CCCCOc1nc(-c2ccc(F)cc2)c(-c2ccc(S(N)(=O)=O)cc2)cc1C#N: 0.2 µM
CSc1nc(-c2ccc(F)cc2)c(-c2ccc(S(C)(=O)=O)cc2)cc1C#N: > 100 µM
CCCOc1nc(-c2ccc(F)cc2)c(-c2ccc(S(C)(=O)=O)cc2)cc1C#N: > 100 µM

Next compound, please.
Request: IC50, test system COX-1 (Homo sapiens, UniProt P23219), entry CCCCOc1nc(-c2ccc(F)cc2)c(-c2ccc(S(C)(=O)=O)cc2)cc1CN(C)C
> 100 µM

Entry source: patent US5916905A
